assay: Antioxidant activity assessed as DPPH radical scavenging activity incubated at room temperature for 20 mins by UV-visible spectrophotometry; settings: DPPH radical (cell-free)
measured_metric: IC50 (mM)

- structure_smiles: "O=C/C=C/c1ccccc1"
  IC50 / mM: 372

[a] O=C(O)/C=C/c1ccccc1
[b] O=C1O[C@H]([C@@H](O)CO)C(O)=C1O
[c] O=C(/C=C\C=C/c1ccc2c(c1)OCO2)N1CCCCC1
**Q:** # desc sort on IC50 across 3 molecules Put the labels in the requested order and list them out.
**A:** a, c, b

====

test: Antioxidant activity assessed as DPPH radical scavenging activity incubated at room temperature for 20 mins by UV-visible spectrophotometry; conditions: DPPH radical (cell-free)
measured_metric: IC50 (mM)

Worked cases, answers included:
- compound: "O=c1c(O)c(-c2ccccc2)oc2ccccc12"
  measured_metric: "IC50"
  test_value: 0.387
- compound: "COc1c(-c2ccccc2)oc2c(ccc3occc32)c1=O"
  measured_metric: "IC50"
  test_value: 4.23
- compound: "O=Cc1ccccc1O"
  measured_metric: "IC50"
  test_value: 96.6

[A] CN(C)c1ccc(-c2oc3ccccc3c(=O)c2O)cc1
[B] COc1c(C(=O)/C=C(\O)c2ccccc2)ccc2occc12
**Q:** Field: entry with larger IC50 (options A / B ). Return value: the label identifying the chosen record.
**A:** B
(B: 11.6 mM, A: 0.022 mM)

[1] O=c1c(O)c(-c2ccc3c(c2)OCO3)oc2ccccc12
[2] O=C(/C=C/C=C/c1ccccc1)c1ccccc1O
[3] Cc1c(C)c2c(c(C)c1O)CCC(C)(C(=O)O)O2 (centres undefined)
[4] CC(C)(C)c1ccc(/C=C/C(=O)c2ccccc2O)cc1
[5] O=c1c(O)c(-c2ccc(Cl)cc2)oc2ccccc12
**Q:** Order by IC50, ascending. Put the labels in the requested order and list them out.
**A:** 3, 1, 5, 2, 4
(3: 0.012 mM, 1: 0.094 mM, 5: 0.663 mM, 2: 7.13 mM, 4: 17.1 mM)

[I] CC(=O)c1ccccc1O
[II] CC(C)(C)c1ccc(-c2oc3cc(O)cc(O)c3c(=O)c2O)cc1
[III] O=C(O)/C=C/c1ccc(O)cc1
**Q:** # desc sort on IC50 across 3 compounds Put the labels in the requested order and list them out.
**A:** I, III, II

====

experiment: Antioxidant activity assessed as DPPH radical scavenging activity incubated at room temperature for 20 mins by UV-visible spectrophotometry; settings: DPPH radical (cell-free)
pIC50: −log10 of the molar value.
measured_metric: pIC50

- molecule: "COc1ccc(-c2oc3ccccc3c(=O)c2O)cc1"
  test_value: 3.94
- molecule: "COc1ccc(-c2cc(=O)c3ccccc3o2)cc1"
  test_value: 0.17
- molecule: "O=C(/C=C/c1ccccc1)c1ccccc1O [2'-HYDROXYCHALCONE]"
  test_value: 1.11
- molecule: "CN(C)c1ccc(-c2oc3cc(O)cc(O)c3c(=O)c2O)cc1"
  test_value: 3.21

[I] Cc1ccc(-c2cc(=O)c3ccccc3o2)cc1
[II] O=c1c(O)c(/C=C/c2ccccc2)oc2ccccc12
**Q:** Which has the smaller recorded pIC50, I or II ? Return value: the label identifying the chosen record.
**A:** I

====

assay: Antioxidant activity assessed as DPPH radical scavenging activity incubated at room temperature for 20 mins by UV-visible spectrophotometry; conditions: DPPH radical (cell-free)
pIC50: −log10 of the molar value.
measured_metric: pIC50

- compound: "CC(C)(C)c1ccc(-c2cc(=O)c3ccc(O)cc3o2)cc1"
  pIC50: 1.35
- compound: "Cc1ccc(/C=C/C(=O)c2ccccc2O)cc1"
  pIC50: 2.11
- compound: "CC(C)c1ccc(-c2cc(=O)c3c(O)cc(O)cc3o2)cc1"
  pIC50: 1.53
- compound: "O=C(/C=C/c1ccc(Cl)cc1)c1ccccc1O"
  pIC50: 2.21
- compound: "CC(C)c1ccc(-c2oc3ccccc3c(=O)c2O)cc1"
  pIC50: 1.96

[A] O=c1c(O)c(-c2ccc(Cl)cc2)oc2cc(O)cc(O)c12
[B] O=C1C[C@@H](c2ccccc2)Oc2cc(O)cc(O)c21
[C] O=C(/C=C/c1ccco1)c1ccccc1O
**Q:** # desc sort on pIC50 across 3 compounds Put the labels in the requested order and list them out.
**A:** C, A, B
(C: 2.37, A: 1.56, B: 1.23)

[1] O=c1cc(-c2ccc(Cl)cc2)oc2ccccc12
[2] O=C(/C=C/C=C/c1ccccc1)c1ccccc1
**Q:** Field: entry with larger pIC50 (options 1 / 2 ). Return value: the label identifying the chosen record.
**A:** 1
(1: 3.14, 2: 0.95)

Ref: ChEMBL document CHEMBL3351737
